- Tested on: Escherichia coli TOP10
- Experiment: shrunken log2 fold change of peptide-encoding DNA abundance (4.5 h post-induction vs induction); higher = less antimicrobial activity (less host growth inhibition)
- Condition Notes: time post-induction: 4.5 h; library: site-saturation at positions 5, 18, 19, 20
t means recorded shrunken log2 fold change is -0.6 or above; f means it is below -0.6.

Here are 8 sequences together with their reported answers.
residue_string=RRIRRRPPRLPRPRPRPMNPPRP cat=t
residue_string=RRIRHRPPRLPRPRPRPMHIPRP cat=f
residue_string=RRIRTRPPRLPRPRPRPFWPPRP cat=t
residue_string=RRIRMRPPRLPRPRPRPTTDPRP cat=t
residue_string=RRIRRRPPRLPRPRPRPMFLPRP cat=t
residue_string=RRIRYRPPRLPRPRPRPTVNPRP cat=t
residue_string=RRIRVRPPRLPRPRPRPWHYPRP cat=f
residue_string=RRIRYRPPRLPRPRPRPTVYPRP cat=f

Could you tell me if the measured shrunken log2 fold change of `RRIRTRPPRLPRPRPRPWIMPRP` reaches -0.6 or more?
f

Reported shrunken log2 fold change at or above -0.6? `RRIRARPPRLPRPRPRPWADPRP`
t

Is the recorded value of shrunken log2 fold change equal to or greater than -0.6 for this sequence? `RRIRGRPPRLPRPRPRPSNAPRP`
t

* * *

Each entry below carries its reported shrunken log2 fold change.
- Tested on: Escherichia coli TOP10
- Experiment: shrunken log2 fold change of peptide-encoding DNA abundance (4.5 h post-induction vs induction); higher = less antimicrobial activity (less host growth inhibition)
- Condition Notes: time post-induction: 4.5 h; library: site-saturation at positions 5, 18, 19, 20

These recorded examples may help you get a feel for the data.
residue_string=RRIRRRPPRLPRPRPRPYGDPRP study_system="Escherichia coli TOP10" readout_kind="shrunken log2 fold change" assay_value=-0.251
residue_string=RRIRIRPPRLPRPRPRPVMIPRP study_system="Escherichia coli TOP10" readout_kind="shrunken log2 fold change" assay_value=-0.00671
residue_string=RRIRWRPPRLPRPRPRPYEKPRP study_system="Escherichia coli TOP10" readout_kind="shrunken log2 fold change" assay_value=-0.139
residue_string=RRIRMRPPRLPRPRPRPAGQPRP study_system="Escherichia coli TOP10" readout_kind="shrunken log2 fold change" assay_value=-0.00902
residue_string=RRIRHRPPRLPRPRPRPQHRPRP study_system="Escherichia coli TOP10" readout_kind="shrunken log2 fold change" assay_value=-0.355
residue_string=RRIRCRPPRLPRPRPRPRCCPRP study_system="Escherichia coli TOP10" readout_kind="shrunken log2 fold change" assay_value=-0.245

Item `RRIRMRPPRLPRPRPRPEDNPRP` : provide shrunken log2 fold change
0.0325

Give the reported shrunken log2 fold change for this sequence. `RRIRLRPPRLPRPRPRPVQRPRP`
0.134

Respond only with shrunken log2 fold change recorded for `RRIRIRPPRLPRPRPRPWDSPRP`
-0.0632

Note shrunken log2 fold change for the sequence shown: `RRIRCRPPRLPRPRPRPDPVPRP`
0.205

Entry `RRIRNRPPRLPRPRPRPGLQPRP` needs its shrunken log2 fold change filled in; supply it.
-0.113

* * *

- Test system: Escherichia coli TOP10
- Experiment: shrunken log2 fold change of peptide-encoding DNA abundance (4.5 h post-induction vs induction); higher = less antimicrobial activity (less host growth inhibition)
- Condition Notes: time post-induction: 4.5 h; library: site-saturation at positions 5, 18, 19, 20
# label = bin(measured shrunken log2 fold change), where bins are label 0: < -0.2; label 1: ≥ -0.2 and < 0.04; label 2: ≥ 0.04

residue_string=RRIRERPPRLPRPRPRPAPYPRP cat="label 1"
residue_string=RRIRLRPPRLPRPRPRPACQPRP cat="label 1"
residue_string=RRIRPRPPRLPRPRPRPPPDPRP cat="label 2"

Given `RRIRPRPPRLPRPRPRPPFDPRP` , name the class its shrunken log2 fold change places it in.
label 2

Class? Entry: `RRIRGRPPRLPRPRPRPAFNPRP`
label 2

* * *

- Test system: Escherichia coli TOP10
- Experiment: shrunken log2 fold change of peptide-encoding DNA abundance (4.5 h post-induction vs induction); higher = less antimicrobial activity (less host growth inhibition)
- Condition Notes: time post-induction: 4.5 h; library: site-saturation at positions 5, 18, 19, 20
Documented shrunken log2 fold change across a set of sequences
Answer with a number only.

residue_string=RRIRDRPPRLPRPRPRPRGEPRP readout_kind="shrunken log2 fold change" assay_value=0.267
residue_string=RRIRWRPPRLPRPRPRPTDGPRP readout_kind="shrunken log2 fold change" assay_value=0.32
residue_string=RRIRARPPRLPRPRPRPPFKPRP readout_kind="shrunken log2 fold change" assay_value=0.368

Specify measured shrunken log2 fold change for `RRIRRRPPRLPRPRPRPCFEPRP` .
0.0864

Tell me shrunken log2 fold change reported for `RRIRHRPPRLPRPRPRPHAIPRP`
-0.251

Give the reported shrunken log2 fold change for this sequence. `RRIRSRPPRLPRPRPRPVHEPRP`
-0.185

* * *

Parameter shrunken log2 fold change: see the listing below.
- System: Escherichia coli TOP10
- Experiment: shrunken log2 fold change of peptide-encoding DNA abundance (4.5 h post-induction vs induction); higher = less antimicrobial activity (less host growth inhibition)
- Condition Notes: time post-induction: 4.5 h; library: site-saturation at positions 5, 18, 19, 20
Lab note: record just the number, no unit beside it.

Past entries and their recorded results:
residue_string=RRIRCRPPRLPRPRPRPGVPPRP assay_value=-0.3
residue_string=RRIRFRPPRLPRPRPRPTSWPRP assay_value=0.3
residue_string=RRIRMRPPRLPRPRPRPNRPPRP assay_value=-0.0884

Give shrunken log2 fold change for the following sequence: `RRIRNRPPRLPRPRPRPLIMPRP`
-0.48

Specify shrunken log2 fold change for `RRIRIRPPRLPRPRPRPMWPPRP` and stop.
0.128

* * *

- System: Escherichia coli TOP10
- Experiment: shrunken log2 fold change of peptide-encoding DNA abundance (4.5 h post-induction vs induction); higher = less antimicrobial activity (less host growth inhibition)
- Condition Notes: time post-induction: 4.5 h; library: site-saturation at positions 5, 18, 19, 20
Readout Kind: shrunken log2 fold change
# output: bare number, no unit

Consider the worked cases shown below.
residue_string=RRIRIRPPRLPRPRPRPRFGPRP assay_value=0.174
residue_string=RRIRPRPPRLPRPRPRPEKGPRP assay_value=0.321
residue_string=RRIRIRPPRLPRPRPRPYLIPRP assay_value=-1.6
residue_string=RRIRNRPPRLPRPRPRPRCAPRP assay_value=0.708
residue_string=RRIRWRPPRLPRPRPRPHHHPRP assay_value=-0.428
residue_string=RRIRVRPPRLPRPRPRPSKIPRP assay_value=-0.0852
residue_string=RRIRSRPPRLPRPRPRPQGIPRP assay_value=0.0897
residue_string=RRIRWRPPRLPRPRPRPRCPPRP assay_value=0.264

Respond only with shrunken log2 fold change recorded for `RRIRPRPPRLPRPRPRPNMPPRP`
-0.405

Consider the sequence `RRIRDRPPRLPRPRPRPLDQPRP` . State its measured shrunken log2 fold change.
0.0626

Indicate its recorded shrunken log2 fold change; the sequence in question is `RRIRVRPPRLPRPRPRPENFPRP`
0.0199

* * *

- Tested on: Escherichia coli TOP10
- Experiment: shrunken log2 fold change of peptide-encoding DNA abundance (4.5 h post-induction vs induction); higher = less antimicrobial activity (less host growth inhibition)
- Condition Notes: time post-induction: 4.5 h; library: site-saturation at positions 5, 18, 19, 20
# key: entry, value: shrunken log2 fold change

Known results for sequences:
residue_string=RRIRDRPPRLPRPRPRPMLEPRP study_system="Escherichia coli TOP10" assay_value=0.358
residue_string=RRIRHRPPRLPRPRPRPERQPRP study_system="Escherichia coli TOP10" assay_value=-0.0882
residue_string=RRIRCRPPRLPRPRPRPDTFPRP study_system="Escherichia coli TOP10" assay_value=0.0257
residue_string=RRIRVRPPRLPRPRPRPHTWPRP study_system="Escherichia coli TOP10" assay_value=-0.351
residue_string=RRIRVRPPRLPRPRPRPCGMPRP study_system="Escherichia coli TOP10" assay_value=-0.00417

Look up and state reported shrunken log2 fold change for `RRIRFRPPRLPRPRPRPQYNPRP`
-1.05

Dear colleague, please send me the reported shrunken log2 fold change for `RRIRKRPPRLPRPRPRPHEQPRP` when you can.
-0.00968

Output measured shrunken log2 fold change for this item: `RRIRARPPRLPRPRPRPLHAPRP`
0.554

Supply shrunken log2 fold change value. Item: `RRIRCRPPRLPRPRPRPQRNPRP`
-0.0392

* * *

- Test system: Escherichia coli TOP10;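 also: peptides expressed intracellularly from a pBAD plasmid library in pooled LB shake-flask culture, induced with 0.3% L-arabinose, DNA abundance read by NGS, three biological replicates, DESeq2 with apeglm shrinkage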
- Experiment: shrunken log2 fold change of peptide-encoding DNA abundance (4.5 h post-induction vs induction); higher = less antimicrobial activity (less host growth inhibition)
- Condition Notes: time post-induction: 4.5 h; library: site-saturation at positions 5, 18, 19, 20
Entries are sorted into classes by shrunken log2 fold change as follows: lower band = under -0.1, central band = from -0.1 up to 0.06, upper band = 0.06 and over

Reference set (5 entries):
residue_string=RRIRRRPPRLPRPRPRPPTIPRP study_system="Escherichia coli TOP10" cat="upper band"
residue_string=RRIRHRPPRLPRPRPRPPKGPRP study_system="Escherichia coli TOP10" cat="upper band"
residue_string=RRIRERPPRLPRPRPRPVYQPRP study_system="Escherichia coli TOP10" cat="central band"
residue_string=RRIRNRPPRLPRPRPRPLFQPRP study_system="Escherichia coli TOP10" cat="lower band"
residue_string=RRIRNRPPRLPRPRPRPDNSPRP study_system="Escherichia coli TOP10" cat="lower band"

Form: Item = `RRIRKRPPRLPRPRPRPFSIPRP` ; Class = ?
central band

Would you mind sorting `RRIRHRPPRLPRPRPRPVTLPRP` into the appropriate category?
lower band

Hi, small favor: classify `RRIRTRPPRLPRPRPRPRWWPRP` by its shrunken log2 fold change when you get a moment.
upper band

Assign a bin to `RRIRTRPPRLPRPRPRPQFRPRP`
lower band

Category lookup for the sequence `RRIRPRPPRLPRPRPRPTMVPRP`
central band

Category of `RRIRGRPPRLPRPRPRPFERPRP` , please.
central band

Please indicate the class for `RRIRSRPPRLPRPRPRPWICPRP` based on its shrunken log2 fold change.
lower band

Please indicate the class for `RRIRKRPPRLPRPRPRPISDPRP` based on its shrunken log2 fold change.
central band

Lab note: which band did `RRIRIRPPRLPRPRPRPAVKPRP` land in?
central band
